tested on: Cladosporium cladosporioides IFO 6348 (Cc-1); assay: Fragrant vapor antifungal activity (impregnated paper disc on cover of inverted agar plate); type: cell-based; details: 20 μl fragrance (or 40 μl of 50% ethanol solution) on disc, 72 hours at 27° C., >85 = growth inhibited over entire plate
METRIC: IZ: Diameter of growth inhibition zone

# annotated cases, reported IZ: Diameter of growth inhibition zone shown
> print(dat)
                                    compound                                    system  result
 1                O=Cc1ccccc1 [Benzaldehyde]  Cladosporium cladosporioides IFO 6348 (Cc-1)  >85 mm
 2        CC(C)c1cccc(=O)c(O)c1 [Hinokitiol]  Cladosporium cladosporioides IFO 6348 (Cc-1)    0 mm
 3  COC(C=C(C)CCC=C(C)C)OC [Citral DMA, citral dimethylacetal]  Cladosporium cladosporioides IFO 6348 (Cc-1)  >85 mm
 4             CCC/C=C/C=O [Trans-2-hexenal]  Cladosporium cladosporioides IFO 6348 (Cc-1)  >85 mm
 5  CC1=CC(C)C(C=O)CC1 (stereo not drawn) [Dimethyl tetrahydrobenzaldehyde, dimethyl tetrahydrobenzaldehyde]  Cladosporium cladosporioides IFO 6348 (Cc-1)  >85 mm
 6  CCCCCCCCCCO [Example 1-Decanol, 1-Decanol]  Cladosporium cladosporioides IFO 6348 (Cc-1)   60 mm
 7  CC(C)=CCCC(C)CCO (stereo not drawn) [Citronellol]  Cladosporium cladosporioides IFO 6348 (Cc-1)   35 mm
 8  CCCCCCCCC=O [Example 1-nonanal, 1-nonanal]  Cladosporium cladosporioides IFO 6348 (Cc-1)  >85 mm
 9      COC(=O)c1ccccc1O [Methyl salicylate]  Cladosporium cladosporioides IFO 6348 (Cc-1)    0 mm
10                     O=Cc1ccco1 [Furfural]  Cladosporium cladosporioides IFO 6348 (Cc-1)  >85 mm

Q. Enter reported IZ: Diameter of growth inhibition zone observed with Cladosporium cladosporioides IFO 6348 (Cc-1) for C=C(C)[C@@H]1CC=C(CO)CC1 [Perilla alcohol]
A. 45 mm

Q. One more compound: O=Cc1ccccc1O [Salicylic aldehyde]
A. >85 mm

Q. Same read-out for COC(/C=C/c1ccccc1)OC [Cinnamic aldehyde DMA, cinnamic aldehydodimethylacetal] ?
A. 0 mm

###

tested on: Cladosporium cladosporioides IFO 6348 (Cc-1); assay: Fragrant vapor antifungal activity (impregnated paper disc on cover of inverted agar plate); type: cell-based; conditions: 20 μl fragrance (or 40 μl of 50% ethanol solution) on disc, 72 hours at 27° C., >85 = growth inhibited over entire plate
METRIC: IZ: Diameter of growth inhibition zone

Sample records with IZ: Diameter of growth inhibition zone:
> print(dat)
                               compound                                    system  result
1                         O=CCCc1ccccc1  Cladosporium cladosporioides IFO 6348 (Cc-1)  >85 mm
2  CC(C)=CCCC(C)CC=O (stereo not shown)  Cladosporium cladosporioides IFO 6348 (Cc-1)  >85 mm

Q. // query IZ: Diameter of growth inhibition zone value for entry CC=Cc1ccc(O)c(OC)c1
A. 45 mm

Q. Queued: C=C(C)C1CC=C(C=O)CC1 (stereo not shown)
A. >85 mm

Source listed as patent US20020177621A1.
